Tested on: Balb/c splenocytes (resting lymphocytes)
Assay: Lymphocyte viability (LcV) assay
Format: cell-based, murine
Settings: unstimulated Balb/c splenocytes, MTT
Procedure: Forty two (42) didemnin compounds (see Table 1) were evaluated for cytotoxicity to one of the lymphocyte populations in the MLR (i.e., Balb/c splenocytes). […] Assay plates were incubated as in the MLR and then pulsed overnight 75 μL per well MTT-thiazolyl blue solution (150 μg). […] Absorbance at 570 nm was measured. The LcV data were calculated as a percentage of basal metabolic activity, or percent viability, relative to BALB/c control, and an LC50 value was interpolated for each test compound.
Numbered stars: 1 amine (or outer) side, 2 acyl side, 3 side chain; on linkers, the order of the positions; unused ones are H or OH. Bridge positions count the residues as written; N and C are the ends. Square brackets hold non-standard residues; d marks the D form. Peptide text beside a SMILES is read from it. * marks the point of attachment. X4 = CC[C@H](C)[C@@H](N[*:1])[C@@H](O)CC(=O)O[C@@H](C(C)C)[C@H](O)[C@H](C)C(=O)[*:2]; X1 = CC[C@H](C)[C@@H](N[*:1])[C@@H](O)CC(=O)O[C@H](C(=O)[C@H](C)C(=O)[*:2])C(C)C; NMeY = CN[C@@H](Cc1ccc(O)cc1)C(=O)O; dNMeL = CN[C@H](CC(C)C)C(=O)O; pGlu = O=C1CC[C@@H](C(=O)O)N1; Isobutyryl = CC(C)C(=O)*; Hexanoyl = CCCCCC(=O)*; Lac = C[C@H](O)C(=O)O

{"columns": ["COMPOUND", "RELATION_SIGN", "cytoxicity to lymphocytes LcV, LC50 (µM)"],
 "data": [
  ["CC[C@H](C)[C@H]1NC(=O)[C@@H](NC(=O)[C@@H](CC(C)C)N(C)C(=O)[C@H](C)NC(=O)[C@H](C)O)[C@@H](C)OC(=O)[C@H](Cc2ccc(OC)cc2)N(C)C(=O)[C@@H]2CCCN2C(=O)[C@H](CC(C)C)NC(=O)[C@@H](C)C(=O)[C@H](C(C)C)OC(=O)C[C@@H]1O [Compound 35, [L-Ala^8]Didemnin B]", ">", 9.20],
  ["CCCCCC(=O)N(C)[C@H](CC(C)C)C(=O)N[C@@H]1C(=O)N[C@H]([C@@H](C)CC)[C@@H](O)CC(=O)O[C@@H](C(C)C)C(=O)[C@H](C)C(=O)N[C@@H](CC(C)C)C(=O)N2CCC[C@H]2C(=O)N(C)[C@@H](Cc2ccc(OC)cc2)C(=O)O[C@@H]1C [Compound 22, N^α -Hexanoyldidemnin A] (Hexanoyl-[dNMeL]T[X1]LP[NMeY](Me); ester 2-C)", "=", 9.60],
  ["CC[C@H](C)[C@H]1NC(=O)[C@@H](NC(=O)[C@@H](CC(C)C)N(C)C(=O)[C@H]2CCCN2C(=O)C(C)C)[C@@H](C)OC(=O)[C@H](Cc2ccc(OC)cc2)N(C)C(=O)[C@@H]2CCCN2C(=O)[C@H](CC(C)C)NC(=O)[C@@H](C)C(=O)[C@H](C(C)C)OC(=O)C[C@@H]1O [Compound 34, [Isobutyryl^9, D-Pro^8] Didemnin B] (Isobutyryl-[dP][dNMeL]T[X1]LP[NMeY](Me); ester 3-C)", "=", 5.60],
  ["CC[C@H](C)[C@H]1NC(=O)[C@@H](NC(=O)[C@@H](CC(C)C)NC)[C@@H](C)OC(=O)[C@H](Cc2ccc(OC)cc2)N(C)C(=O)[C@@H]2CCCN2C(=O)[C@H](CC(C)C)NC(=O)[C@@H](C)[C@@H](O)[C@H](C(C)C)OC(=O)C[C@@H]1O [Compound 10, [(2S,3R,4S)-H2 Hip^3]Didemnin A] (H-[dNMeL]T[X4]LP[NMeY](Me); ester 2-C)", ">", 10.6],
  ["CC[C@H](C)[C@H]1NC(=O)[C@@H](NC(=O)[C@@H](CC(C)C)N(C)C(=O)[C@@H]2CCCN2C(=O)[C@H](C)OC(=O)[C@H](CCC(N)=O)NC(=O)[C@H](CCC(N)=O)NC(=O)[C@H](CCC(N)=O)NC(=O)[C@@H]2CCC(=O)N2)[C@@H](C)OC(=O)[C@H](Cc2ccc(OC)cc2)N(C)C(=O)[C@@H]2CCCN2C(=O)[C@H](CC(C)C)NC(=O)[C@@H](C)C(=O)[C@H](C(C)C)OC(=O)C[C@@H]1O [Compound 40, Didemnin D] ([pGlu]QQQ[Lac]P[dNMeL]T[X1]LP[NMeY](Me); ester 8-C)", ">", 6.22]
]}
